system: sorghum; assay: Test A pre-emergence; format: in vivo; parameters: key: 0 = no effect, 10 = maximum effect; letter = response symbol; settings: 0.4 kg/ha
Below, each entry is listed with its recorded response rating.
propertyLabel: response rating (G)

>>> print(df.to_string())
                                   compound  resultnumber
0  CCCCCCCCCCOC(=O)c1ccccc1S(=O)(=O)NC(=O)Nc1nc(OC)cc(OC)n1 [drawing 494]             8
1  COC(=O)c1ccccc1S(=O)(=O)NC(=O)N(C)c1nc(C)cc(C)n1 [drawing 486]             4
2  CCOCCOC(=O)c1ccccc1S(=O)(=O)NC(=O)Nc1nc(Cl)cc(Cl)n1 [drawing 520]             8
3  CCCCCCOC(=O)c1ccccc1S(=O)(=O)NC(=O)Nc1nc(C)cc(COC)n1 [drawing 538]             3

###

test system: rice; assay: Test A post-emergence; format: in vivo; parameters: key: 0 = no effect, 10 = maximum effect; letter = response symbol; settings: 0.4 kg/ha
Below, each entry is listed with its recorded response rating.
propertyLabel: response rating (G)

                                   molecule    propertylabel  resultnumber
0  CCCCCCCCCCOC(=O)c1ccccc1S(=O)(=O)NC(=O)Nc1nc(C)nc(OC)n1 [drawing 430]  response rating             6
1  COc1nc(NC(=O)NS(=O)(=O)c2ccccc2C(=O)OCCCl)nc(OC)n1 [drawing 422]  response rating             6
2  COc1nc(NC(=O)NS(=O)(=O)c2ccccc2C(=O)OC2CCCCC2)nc(OC)n1 [drawing 432]  response rating             2

###

system: wild oats; assay: Test A pre-emergence; assay type: in vivo, Avena fatua; design: key: 0 = no effect, 10 = maximum effect; letter = response symbol; conditions: 0.4 kg/ha
Below, each entry is listed with its recorded response rating.
propertyLabel: response rating

                                    compound  targetsystem  result
 0  COC(=O)c1ccccc1S(=O)(=O)NC(=O)Nc1nc(C)cc(OC)n1 [drawing 480]     wild oats      9H
 1  CCCCCCCCCCOC(=O)c1ccccc1S(=O)(=O)NC(=O)Nc1nc(C)nc(OC)n1 [drawing 497]     wild oats       0
 2  COc1nc(C)nc(NC(=O)NS(=O)(=O)c2ccccc2C(=O)OC(C)Cc2ccccc2)n1 (stereo not shown) [drawing 524]     wild oats      9H
 3  COc1cc(C)nc(NC(=O)NS(=O)(=O)c2ccccc2C(=O)NCc2ccccc2)n1 [drawing 531]     wild oats      3C
 4  CCCCCCOC(=O)c1ccccc1S(=O)(=O)NC(=O)Nc1nc(C)cc(COC)n1 [drawing 538]     wild oats       0
 5  COC(=O)c1ccccc1S(=O)(=O)NC(=O)Nc1nc(C)nc(OC)n1 [drawing 482]     wild oats      9H
 6  COc1cc(C)nc(NC(=O)NS(=O)(=O)c2ccccc2C(=O)OC(C)C)n1 [drawing 504]     wild oats      8G
 7  COc1nc(C)nc(NC(=O)NS(=O)(=O)c2ccccc2C(=O)OCCCl)n1 [drawing 493]     wild oats      8H
 8  CCOCCOC(=O)c1ccccc1S(=O)(=O)NC(=O)Nc1nc(Cl)cc(Cl)n1 [drawing 520]     wild oats       0
 9  CCC(C)OC(=O)c1ccccc1S(=O)(=O)NC(=O)Nc1nc(OC)cc(OC)n1 (stereo not shown) [drawing 490]     wild oats      8G
10  COC(=O)c1ccccc1S(=O)(=O)NC(=O)N(C)c1nc(C)cc(C)n1 [drawing 486]     wild oats       0
11  COC(=O)c1cc(Cl)ccc1S(=O)(=O)NC(=O)Nc1nc(OC)nc(OC)n1 [drawing 502]     wild oats      8G
12  COC(=O)c1ccccc1S(=O)(=O)NC(=O)Nc1nc(OC)cc(OC)n1 [drawing 481]     wild oats      9H
13  COc1nc(NC(=O)NS(=O)(=O)c2ccccc2C(=O)OC(C)C)nc(OC)n1 [drawing 505]     wild oats      8G
14  COc1nc(NC(=O)NS(=O)(=O)c2ccccc2C(=O)OCCCl)nc(OC)n1 [drawing 489]     wild oats      8G
15  CCCCCCCCCCOC(=O)c1ccccc1S(=O)(=O)NC(=O)Nc1nc(OC)nc(OC)n1 [drawing 496]     wild oats       0
